- Tested On: T1, β-catenin (UniProt P35222 1-781, limits assumed)
- T1 construct: also called beta-catenin
- T1 sequence (looked up): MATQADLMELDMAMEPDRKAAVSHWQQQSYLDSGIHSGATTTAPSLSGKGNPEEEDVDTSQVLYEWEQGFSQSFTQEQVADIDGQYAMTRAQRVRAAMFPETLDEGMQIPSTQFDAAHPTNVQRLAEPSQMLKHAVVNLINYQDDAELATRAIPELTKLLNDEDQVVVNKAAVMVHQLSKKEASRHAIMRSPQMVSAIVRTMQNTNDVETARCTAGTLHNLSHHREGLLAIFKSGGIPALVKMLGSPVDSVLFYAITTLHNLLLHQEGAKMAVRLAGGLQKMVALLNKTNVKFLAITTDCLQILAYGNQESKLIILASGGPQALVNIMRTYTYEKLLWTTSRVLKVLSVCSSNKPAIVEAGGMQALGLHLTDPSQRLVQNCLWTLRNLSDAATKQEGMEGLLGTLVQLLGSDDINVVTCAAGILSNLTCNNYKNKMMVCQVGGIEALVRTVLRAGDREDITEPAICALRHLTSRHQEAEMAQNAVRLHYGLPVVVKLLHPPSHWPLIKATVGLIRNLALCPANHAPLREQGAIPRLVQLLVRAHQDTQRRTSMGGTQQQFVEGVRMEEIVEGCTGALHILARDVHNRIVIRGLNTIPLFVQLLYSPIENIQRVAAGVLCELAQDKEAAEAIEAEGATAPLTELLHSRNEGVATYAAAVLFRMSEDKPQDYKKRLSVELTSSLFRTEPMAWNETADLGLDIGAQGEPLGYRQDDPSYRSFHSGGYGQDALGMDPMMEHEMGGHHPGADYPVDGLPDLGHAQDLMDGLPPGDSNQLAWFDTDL
- Assay Explanation: ALPHA Screen (BCL9/β-catenin);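 further: bead proximity readout with the polypeptide linked to donor beads and β-catenin fixed on acceptor beads, their binding bringing the beads close enough to emit signal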
Bridges are numbered along the chain shown (N, C = ends). Primed or numbered codes have the meaning given here. [ ]: non-standard residue; d: D form. The star is where a group is joined. NMeQ′ = N-methylglutamine (N-alpha-methyl, stereo named both D and L in the filing); PEG4″ = PEG4 (tetraethylene glycol) spacer; 2Nal = N[C@@H](Cc1ccc2ccccc2c1)C(=O)O; Palmitoyl = CCCCCCCCCCCCCCCC(=O)*; hArg = N=C(N)NCCCC[C@H](N)C(=O)O; NMeQ = CN[C@@H](CCC(N)=O)C(=O)O; Cha = N[C@@H](CC1CCCCC1)C(=O)O; Cba = N[C@@H](CC1CCC1)C(=O)O; S5 = C=CCCC[C@](C)(N)C(=O)O
Readout Name: pIC50
Notebook: values listed as pIC50 are -log10 of the concentration (mol/L).

Worked set:
Binder | pIC50
{Palmitoyl-PEG4″}-HR[NMeQ′]RSL[NMeQ′]TLR[S5]IQR[S5][Cha][2Nal]-NH2 (staple 11-15; not fully specified) [SEQ ID NO: 207] | 6.45
Ac-RE[S5]SLQ[S5]LR[S5]IQR[S5]L[2Nal]-NH2 (staple 10-14, 3-7; not fully specified; printed as REXSLQXLRZIQRZL(2-Nal)) [SEQ ID NO: 39] | 5.66
Ac-L[NMeQ]TLR[S5]IQ[hArg][S5][Cba][2Nal]-NH2 (staple 6-10; also: N-methyl-Gln at 2: filing says both D and L) [SEQ ID NO: 133] | 5.04

Q: // returns reported pIC50 for input Ac-L[NMeQ]T[Cha]R[S5]IQR[S5][Cba][2Nal]-NH2 (staple 6-10; not fully specified; printed as L(N-methylQ)T(Cha)RXIQRX(CBA)(2-Nal)) [SEQ ID NO: 123]
Result: 5.44

Cited source: patent US20200262867A1
